target_or_test_system: T1, recombinant human CD73 protein (human, UniProt P21589 27-547)
T1 construct: Bought soluble protein; The background says that CD73 forms a homodimer; also called soluble CD73; free CD73 protein
T1 sequence (looked up): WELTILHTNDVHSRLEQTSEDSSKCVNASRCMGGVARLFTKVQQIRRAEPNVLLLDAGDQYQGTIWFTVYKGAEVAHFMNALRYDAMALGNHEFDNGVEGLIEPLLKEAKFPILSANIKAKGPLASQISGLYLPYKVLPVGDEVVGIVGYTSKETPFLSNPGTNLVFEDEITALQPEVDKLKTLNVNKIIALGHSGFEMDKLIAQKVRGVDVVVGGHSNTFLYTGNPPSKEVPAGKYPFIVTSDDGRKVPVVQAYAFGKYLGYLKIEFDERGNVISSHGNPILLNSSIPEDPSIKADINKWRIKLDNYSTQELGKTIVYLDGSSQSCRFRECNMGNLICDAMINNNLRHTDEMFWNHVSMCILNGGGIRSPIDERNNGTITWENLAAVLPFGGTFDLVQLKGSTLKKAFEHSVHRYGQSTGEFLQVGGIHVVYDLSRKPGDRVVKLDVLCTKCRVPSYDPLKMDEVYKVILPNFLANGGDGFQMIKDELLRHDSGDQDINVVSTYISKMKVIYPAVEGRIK
method: BLI (Fortebio), human CD73 on HIS1K biosensors, antibody as analyte
Listed here are binders together with their documented Kd.

[[record]]
binder = "Hab7C3C2.9 (antibody, human IgG1, kappa, L234A L235A, V domains shown, Humanized 7C3C2; also called Huab7C3C.9) VH: QVQLVQSGAEVKKPGASVKVSCKASGYTFTSYDINWVRQATGQGLEWMGWIYPRDGFTKYAQKFQGRVTITVNTSISTAYMELSSLRSEDTAVYYCARKEGYRGDWYFDVWGQGTTVTVSS VL: DIQMTQSPSSLSASVGDRVTITCRASGNVHNYLAWYQQKPGKAPKLLLYNAKTLASGVPSRFSGSGSGTDYTLTISSLQPEDFATYYCQHFWSTPWTFGGGTELEIKR"
quantity_kind = "Kd"
result = "1.03 nM"


Hab1F2F9.15 (antibody, human IgG1, kappa, L234A L235A, V domains shown, Humanized 1F2F9; also called Huab1F2F9.15; HuablF2F9.15) VH: QVQLVQSGAEVKKPGASVKVSCKASGYTFTSYWMHWVRQAPGQRLEWMGNINPSNGGTKYSQKFQGRVTITVDTSASTAYMELSSLRSEDTAVYYCARRDYGSPSYWGQGTTVTVSS VL: DIQMTQSPSSLSASVGDRVTITCKASQDINSYLTWFQQKPGKAPKSLIYRTNILLDGVPSRFSGSGSGTDYTLTISSLQPEDFATYYCLQYHEFPVTFGGGTKLEIKR has a reported Kd of 0.779 nM

# binder Hab1F2F9.12 (antibody, human IgG1, kappa, L234A L235A, V domains shown, Humanized 1F2F9; also called Huab1F2F9.12) VH: QVQLVQSGAEVKKPGASVKVSCKASGYTFTSYWMHWVRQAPGQRLEWMGNINPSNGGTKYNEKFQGRVTITVDTSASTAYMELSSLRSEDTAVYYCARRDYGSPSYWGQGTTVTVSS VL: DIQMTQSPSSLSASVGDRVTITCKASQDINSYLTWFQQKPGKAPKSLIYRTNILLDGVPSRFSGSGSGTDYTLTISSLQPEDFATYYCLQYHEFPVTFGGGTKLEIKR ; its Kd = 0.72 nM

Values from patent US20260152567A1
